Just for reference, patent US20240116985A1 is where these values come from.

# tgt: full-length beta-Catenin (Uniprot ID P35222) (Homo sapiens, UniProt P35222)
# Construct: 10 nM full-length beta-Catenin (Uniprot ID P35222)
# Sequence (P35222 whole entry): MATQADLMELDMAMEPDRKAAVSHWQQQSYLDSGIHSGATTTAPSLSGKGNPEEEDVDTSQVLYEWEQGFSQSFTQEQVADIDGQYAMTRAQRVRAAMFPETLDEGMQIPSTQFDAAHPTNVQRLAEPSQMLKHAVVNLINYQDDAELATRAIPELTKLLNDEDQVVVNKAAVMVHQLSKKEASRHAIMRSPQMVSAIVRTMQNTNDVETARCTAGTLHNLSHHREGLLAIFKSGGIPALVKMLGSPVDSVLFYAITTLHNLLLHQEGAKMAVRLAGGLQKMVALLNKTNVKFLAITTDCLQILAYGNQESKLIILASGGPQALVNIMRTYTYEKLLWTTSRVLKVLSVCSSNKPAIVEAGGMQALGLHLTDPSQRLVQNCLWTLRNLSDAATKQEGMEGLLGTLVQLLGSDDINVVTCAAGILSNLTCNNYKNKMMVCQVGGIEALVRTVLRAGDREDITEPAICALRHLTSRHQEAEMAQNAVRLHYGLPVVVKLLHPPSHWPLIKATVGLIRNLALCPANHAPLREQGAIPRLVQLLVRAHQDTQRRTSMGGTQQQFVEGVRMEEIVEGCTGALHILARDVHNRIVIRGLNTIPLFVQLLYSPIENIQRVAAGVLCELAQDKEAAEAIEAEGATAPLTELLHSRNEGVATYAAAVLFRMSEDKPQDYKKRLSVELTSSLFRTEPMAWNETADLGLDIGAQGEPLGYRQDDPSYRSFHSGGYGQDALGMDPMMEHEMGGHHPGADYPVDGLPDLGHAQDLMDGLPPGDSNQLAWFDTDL
# experiment: Fluorescence polarization IC50 (beta-catenin / 5FAM-TCF4 10-53 competition)
# Assay type: binding
# conditionParameters: Table E2-1; read-out: beta-Catenin FP IC50
pIC50: −log10 of the molar value.
assayReadout: pIC50

INSERT INTO assay_data (compound, assayreadout, numericresult) VALUES
  ('COC[C@@H]1NC(=O)[C@H](CC(=O)O)NC(=O)[C@]2(CC=CCCCC3(CCCC=CCCCCCC[C@@](C)(C(=O)N[C@@H](Cc4ccccc4)C(=O)N[C@@H](Cc4csc5ccccc45)C(=O)N[C@@H](CCC(N)=O)C(N)=O)NC(=O)[C@H](C(C)C)NC(=O)[C@H](Cc4ccccc4)NC(=O)[C@H](C)NC(=O)[C@H](C)NC(=O)[C@H](CC(=O)O)NC(=O)[C@H](CC(=O)O)NC3=O)NC1=O)CCCN2C(C)=O (stereo partly shown)', 'pIC50', 6.87),
  ('CC(=O)N1CCC[C@]12CC=CCCCC1(CCCC=CCCCCCC[C@@](C)(C(=O)N[C@@H](Cc3cccc(F)c3)C(=O)N[C@@H](Cc3csc4ccccc34)C(=O)N[C@@H](CCC(N)=O)C(N)=O)NC(=O)[C@H](C(C)C)NC(=O)[C@H](Cc3ccccc3)NC(=O)[C@H](C)NC(=O)[C@H](C)NC(=O)[C@H](CC(N)=O)NC(=O)[C@H](CC(=O)O)NC1=O)NC(=O)[C@H](C)NC(=O)[C@H](CC(=O)O)NC2=O (stereo partly shown) [I-381]', 'pIC50', 5.44),
  ('CC(=O)N1CCC[C@]12CC=CCCCC1(CCCC=CCOC(=O)N(C)CCC[C@@](C)(C(=O)N[C@@H](Cc3ccccc3)C(=O)N[C@@H](Cc3c[nH]c4ccccc34)C(=O)N[C@@H](CCC(N)=O)C(N)=O)NC(=O)[C@H](C(C)C)NC(=O)[C@H](Cc3ccccc3)NC(=O)[C@H](C)NC(=O)[C@H](C)NC(=O)[C@H](CCC(=O)O)NC(=O)[C@H](CC(=O)O)NC1=O)NC(=O)[C@H](C)NC(=O)[C@H](CC(=O)O)NC2=O (stereo partly shown)', 'pIC50', 5.67),
  ('CC(=O)N1CCC[C@]12CC=CCCCC1(CCCC=CCCCCCC[C@@](C)(C(=O)N[C@@H](Cc3ccccc3)C(=O)N[C@@H](Cc3csc4ccccc34)C(=O)N[C@@H](Cc3c[nH]cn3)C(N)=O)NC(=O)[C@H](CCC(N)=O)NC(=O)[C@H](Cc3ccccc3)NC(=O)[C@H](C)NC(=O)[C@H](C)NC(=O)[C@H](CC(=O)O)NC(=O)[C@H](CC(=O)O)NC1=O)NC(=O)[C@H](C)NC(=O)[C@H](CC(=O)O)NC2=O (stereo partly shown) [I-360]', 'pIC50', 6.84),
  ('CC(=O)N1CCC[C@]12CC=CCCCC1(CCCC=CCCCCCC[C@@](C)(C(=O)N[C@@H](Cc3ccccc3)C(=O)N[C@@H](Cc3c[nH]c4ccccc34)C(=O)N[C@@H](C)C(N)=O)NC(=O)[C@H](C)NC(=O)[C@H](Cc3ccccc3)NC(=O)[C@H](C)NC(=O)[C@H](C)NC(=O)[C@H](CCC(=O)O)NC(=O)[C@H](CC(=O)O)NC1=O)NC(=O)[C@H](C)NC(=O)[C@H](CC(=O)O)NC2=O (stereo partly shown)', 'pIC50', 5.48),
  ('CC(=O)N1CCC[C@]12CC=CCCCC1(CCCC=CCCCCCC[C@@](C)(C(=O)N[C@@H](Cc3ccccc3)C(=O)N[C@@H](Cc3csc4ccccc34)C(=O)N[C@@H](CCC(N)=O)C(N)=O)NC(=O)[C@H](CCC(N)=O)NC(=O)[C@H](Cc3cccc(C(F)(F)F)c3)NC(=O)[C@H](C)NC(=O)[C@H](C)NC(=O)[C@H](CC(=O)O)NC(=O)[C@H](CC(=O)O)NC1=O)NC(=O)[C@H](C)NC(=O)[C@H](CC(=O)O)NC2=O (stereo partly shown) [I-380]', 'pIC50', 6.26),
  ('CC(=O)N1CCC[C@]12CC=CCCCC1(CCCC=CCCCCCC[C@@](C)(C(=O)N[C@@H](Cc3ccc(C)cc3)C(=O)N[C@@H](Cc3csc4ccccc34)C(=O)N[C@@H](CCC(N)=O)C(N)=O)NC(=O)[C@H](C)NC(=O)[C@H](Cc3ccccc3)NC(=O)[C@H](C)NC(=O)[C@H](C)NC(=O)[C@H](CC(=O)O)NC(=O)[C@H](CC(=O)O)NC1=O)NC(=O)[C@H](C)NC(=O)[C@H](CC(=O)O)NC2=O (stereo partly shown)', 'pIC50', 5.64),
  ('CC(=O)N1CCC[C@]12CC=CCCCC1(CCCC=CCCCCCC[C@@](C)(C(=O)N[C@@H](Cc3ccccc3)C(=O)N[C@@H](Cc3ccc4ccccc4c3)C(=O)N[C@@H](CCC(N)=O)C(N)=O)NC(=O)[C@H](C(C)C)NC(=O)[C@H](Cc3ccc(F)c(F)c3)NC(=O)[C@H](C)NC(=O)[C@H](C)NC(=O)[C@H](CCC(=O)O)NC(=O)[C@H](CC(=O)O)NC1=O)NC(=O)[C@H](C)NC(=O)[C@H](CC(=O)O)NC2=O (stereo partly shown)', 'pIC50', 5.51),
  ('CC(=O)N1CCC[C@]12CC=CCCCC1(CCCC=CCCCCCC[C@@](C)(C(=O)N[C@@H](Cc3ccccc3)C(=O)N[C@@H](Cc3csc4ccccc34)C(=O)N[C@@H](CCC(N)=O)C(N)=O)NC(=O)[C@H](CC(N)=O)NC(=O)[C@H](Cc3ccccc3)NC(=O)[C@H](C)NC(=O)[C@H](C)NC(=O)[C@H](CC(=O)O)NC(=O)[C@H](CC(=O)O)NC1=O)NC(=O)[C@H](C)NC(=O)[C@H](CC(=O)O)NC2=O (stereo partly shown) [I-343]', 'pIC50', 6.76),
  ('CC(=O)N1CCC[C@]12CC=CCCCC1(CCCC=CCCCCCC[C@@](C)(C(=O)N[C@@H](Cc3ccccc3)C(=O)N[C@@H](Cc3c[nH]c4ccccc34)C(=O)N[C@@H](CCC(N)=O)C(N)=O)NC(=O)[C@H](C(C)C)NC(=O)[C@H](Cc3ccccc3)NC(=O)[C@H](C)NC(=O)[C@H](C)NC(=O)[C@H](CCCC(=O)O)NC(=O)[C@H](CC(=O)O)NC1=O)NC(=O)[C@H](C)NC(=O)[C@H](CC(=O)O)NC2=O (stereo partly shown)', 'pIC50', 5.70);
